src = the Immune Epitope Database (IEDB)

- ASSAYED TARGET: HLA-B*40:13
- ASSAY METHOD TEXT: IEDB peptide-MHC binding, purified MHC/competitive/fluorescence; filed as Kd, often an IC50 or EC50 that approximates it; bounds were set here for any values at or beyond the usual limits of such assays
- STATED CONDITIONS: source organism: Yersinia pestis Nepal516
OBSERVABLE: pKd
Hey, just a heads up that pKd is the negative log base 10 of the concentration in molar.

### Prompt Provide one value: measured pKd of `MPFAWQFGF`
### Response 6.64

====

- ASSAYED TARGET: HLA-B*51:01
- ASSAY METHOD TEXT: IEDB peptide-MHC binding, purified MHC/competitive/fluorescence; filed as Kd, often an IC50 or EC50 that approximates it; bounds were set here for any values at or beyond the usual limits of such assays
- STATED CONDITIONS: source organism: Reston ebolavirus - Reston (1989)
OBSERVABLE: Kd

### Prompt Provide one value: measured Kd of `LIMEFNSLL`
### Response ≥ 20 µM
